Source of measurements: patent US5198430A

Test: in vivo
Set-up: species or system Wistar rats
Conditions: rat, po, 8 mg/kg
reported endpoint: dose excreted at 24 h (%)
Lab book: enter the figure in %, no units written.

Lab note: COc1cc(C2Oc3cc(C4Oc5cc(O)cc(O)c5C(=O)C4O)ccc3OC2CO)ccc1O (stereo not shown) gave dose excreted at 24 h of 0.6

* * *

Assay: in vivo
Design: species or system Wistar rats
Conditions: rat, po, 8 mg/kg
reported endpoint: concentration at 24 h
A bare number is not enough; add the unit after it.

Entry under test: COc1cc(C2Oc3cc(C4Oc5cc(O)cc(O)c5C(=O)C4O)ccc3OC2CO)ccc1O (stereo not shown) . Its concentration at 24 h was 1000 ng/mL
